Target: T1, human IL-33 (R&D Systems, #3625-IL-010/CF) (human, UniProt O95760 112-270)
T1 construct: Commercial recombinant protein; also called hIL-33; interleukin-33
T1 sequence (looked up): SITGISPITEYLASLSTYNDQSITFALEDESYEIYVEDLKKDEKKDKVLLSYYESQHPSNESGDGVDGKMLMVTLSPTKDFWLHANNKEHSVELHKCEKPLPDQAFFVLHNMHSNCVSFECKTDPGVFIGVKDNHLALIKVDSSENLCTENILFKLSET
Test: BLI; hIL-33 pre-mixed with mAb-2 Isotype control 2
Checkbox rule: mAb-1 Binding to the Pre-complex of mAb-2 & hIL-33 lower than 0.1 nm = Fulfilled; mAb-1 Binding to the Pre-complex of mAb-2 & hIL-33 not lower than 0.1 nm = Not fulfilled.

The following binders have reported results that may help.
H4H9667P (antibody, human IgG4, V domains shown, Human IgG4 Fc (H4H)) VH: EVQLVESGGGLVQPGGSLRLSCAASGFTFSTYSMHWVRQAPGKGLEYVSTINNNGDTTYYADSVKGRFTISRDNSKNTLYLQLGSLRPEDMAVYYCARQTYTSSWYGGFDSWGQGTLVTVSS VL: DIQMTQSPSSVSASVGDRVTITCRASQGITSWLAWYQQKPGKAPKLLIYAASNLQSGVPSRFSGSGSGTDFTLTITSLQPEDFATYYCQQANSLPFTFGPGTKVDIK | Not fulfilled
H4H9671P (antibody, human IgG4, V domains shown, Human IgG4 Fc (H4H)) VH: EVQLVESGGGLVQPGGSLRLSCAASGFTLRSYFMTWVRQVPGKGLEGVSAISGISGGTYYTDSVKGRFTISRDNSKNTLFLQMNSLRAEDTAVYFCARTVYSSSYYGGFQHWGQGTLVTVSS VL: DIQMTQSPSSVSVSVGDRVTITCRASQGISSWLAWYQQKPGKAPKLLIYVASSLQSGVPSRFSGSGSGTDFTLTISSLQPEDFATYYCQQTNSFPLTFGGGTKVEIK | Fulfilled
H4H9633P (antibody, human IgG4, V domains shown, Human IgG4 Fc (H4H)) VH: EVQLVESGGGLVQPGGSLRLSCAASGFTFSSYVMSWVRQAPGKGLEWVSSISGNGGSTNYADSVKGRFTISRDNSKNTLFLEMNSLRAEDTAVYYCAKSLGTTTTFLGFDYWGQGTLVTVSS VL: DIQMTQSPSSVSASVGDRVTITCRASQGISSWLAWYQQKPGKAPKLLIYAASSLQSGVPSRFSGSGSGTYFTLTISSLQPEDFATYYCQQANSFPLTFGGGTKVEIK | Not fulfilled
H4H9659P (antibody, human IgG4, V domains shown, Human IgG4 Fc (H4H)) VH: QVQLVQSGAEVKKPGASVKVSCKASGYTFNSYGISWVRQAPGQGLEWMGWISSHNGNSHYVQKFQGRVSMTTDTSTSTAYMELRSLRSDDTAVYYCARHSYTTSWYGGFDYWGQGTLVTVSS VL: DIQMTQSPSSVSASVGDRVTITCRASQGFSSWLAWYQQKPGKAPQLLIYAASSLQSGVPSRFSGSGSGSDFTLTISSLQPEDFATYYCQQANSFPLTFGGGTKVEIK | Fulfilled

stdin: Record H4H9666P (antibody, human IgG4, V domains shown, Human IgG4 Fc (H4H)) VH: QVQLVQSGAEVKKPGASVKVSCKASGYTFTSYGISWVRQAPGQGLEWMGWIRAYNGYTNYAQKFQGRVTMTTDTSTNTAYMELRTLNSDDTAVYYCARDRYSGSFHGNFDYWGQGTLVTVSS VL: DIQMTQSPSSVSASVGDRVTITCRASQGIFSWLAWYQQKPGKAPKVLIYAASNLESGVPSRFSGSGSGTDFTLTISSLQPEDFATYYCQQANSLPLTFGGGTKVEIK : is its mAb-1 Binding to the Pre-complex of mAb-2 & hIL-33 strictly below 0.1 nm?
stdout: Fulfilled

stdin: Record H4H9665P (antibody, human IgG4, V domains shown, Human IgG4 Fc (H4H)) VH: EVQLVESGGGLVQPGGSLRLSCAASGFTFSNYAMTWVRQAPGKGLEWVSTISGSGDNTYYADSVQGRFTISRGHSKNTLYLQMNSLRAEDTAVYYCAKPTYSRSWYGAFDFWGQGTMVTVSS VL: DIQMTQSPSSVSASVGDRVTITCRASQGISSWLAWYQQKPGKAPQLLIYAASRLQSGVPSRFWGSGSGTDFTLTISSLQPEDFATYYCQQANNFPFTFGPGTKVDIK : is its mAb-1 Binding to the Pre-complex of mAb-2 & hIL-33 strictly below 0.1 nm?
stdout: Fulfilled

stdin: Record H4H9675P (antibody, human IgG4, V domains shown, Human IgG4 Fc (H4H)) VH: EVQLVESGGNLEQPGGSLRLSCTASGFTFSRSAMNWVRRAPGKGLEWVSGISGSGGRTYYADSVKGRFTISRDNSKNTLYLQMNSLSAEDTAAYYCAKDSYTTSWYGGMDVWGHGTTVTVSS VL: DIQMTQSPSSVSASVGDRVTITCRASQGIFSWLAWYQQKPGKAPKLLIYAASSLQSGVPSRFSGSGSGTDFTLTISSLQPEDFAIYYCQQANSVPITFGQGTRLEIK : is its mAb-1 Binding to the Pre-complex of mAb-2 & hIL-33 strictly below 0.1 nm?
stdout: Not fulfilled

Where these numbers come from: patent US20160362487A1
